src = patent US20240317706A1

pKi: −log10 of the molar value.
# pKi per entry for CRBN-DDB1 (Homo sapiens)

Some compounds with known pKi results, for comparison:
>  <compound>
O=C1CCC(N2Cc3ccc(CNC(=O)OCCOC4CC4)cc3C2=O)C(=O)N1 (centres unmarked) [Compound 21]

>  <quantity.measured>
pKi

>  <endpoint.result>
6.00 to 7.00

$$$$
>  <compound>
O=C1CCC(N2Cc3ccc(CNC(=O)OC4CCc5ccccc5C4)cc3C2=O)C(=O)N1 (centres unmarked) [Compound 17]

>  <quantity.measured>
pKi

>  <endpoint.result>
6.00 to 7.00

$$$$
>  <compound>
O=C1CCC(N2Cc3ccc(CNC(=O)OC4CC5(CCC5)C4)cc3C2=O)C(=O)N1 (centres unmarked) [Compound 3]

>  <quantity.measured>
pKi

>  <endpoint.result>
6.00 to 7.00

$$$$
>  <compound>
O=C1CCC(N2Cc3ccc(CNC(=O)OCC4CCCCO4)cc3C2=O)C(=O)N1 (centres unmarked) [Compound 41]

>  <quantity.measured>
pKi

>  <endpoint.result>
6.00 to 7.00

$$$$

Please look at the following compound next.
### Prompt What pKi value was documented for this compound, CC1(COC(=O)NCc2ccc3c(c2)C(=O)N(C2CCC(=O)NC2=O)C3)COC1 (centres unmarked) [Compound 16] ?
### Response 6.00 to 7.00

----------
study.system: CDK2 (Homo sapiens)
Construct: HEK293 clonal lines with CRISPR KI HiBiT tag on CDK2 proteins; host or cells: HEK293 clonal line, CRISPR knock-in HiBiT-CDK2, stably expressing LgBiT
protocol.summary: HiBiT assay (CDK2 degradation)
Format: cell-based
conditions: HEK293 clonal line with CRISPR KI HiBiT tag on CDK2, 24 hours, HiBiT Lysis Reagent
quantity.measured: Dmax

Some compounds with known Dmax results, for comparison:
>  <compound>
O=C1CCC(N2Cc3ccc(CNC(=O)OC4Cc5ccccc54)cc3C2=O)C(=O)N1 (centres unmarked)

>  <endpoint.result>
10 to 50%

$$$$
>  <compound>
O=C1CCC(N2Cc3ccc(CNC(=O)OCC4CC5(C4)CC54CCC4)cc3C2=O)C(=O)N1 (centres unmarked)

>  <endpoint.result>
50 to 80%

$$$$
>  <compound>
C[C@H](OC(=O)NCc1ccc2c(c1)C(=O)N(C1CCC(=O)NC1=O)C2)C1CC1 (some centres unmarked)

>  <endpoint.result>
10 to 50%

$$$$
>  <compound>
O=C1CCC(N2Cc3ccc(CNC(=O)OCCOC4CC4)cc3C2=O)C(=O)N1 (centres unmarked)

>  <endpoint.result>
≤ 10%

$$$$
>  <compound>
O=C1CCC(N2Cc3ccc(CNC(=O)OC[C@@H]4C[C@@H]5C=C[C@H]4CC5)cc3C2=O)C(=O)N1 (mixture of isomers)

>  <endpoint.result>
50 to 80%

$$$$

### Prompt What Dmax value was documented for this compound, C[C@H]1COC[C@@H]1OC(=O)NCc1ccc2c(c1)C(=O)N(C1CCC(=O)NC1=O)C2 (some centres unmarked) ?
### Response ≤ 10%

### Prompt Further, for O=C1CCC(N2Cc3ccc(CNC(=O)OCC4CCOC4)cc3C2=O)C(=O)N1 (centres unmarked) ?
### Response 10 to 50%

### Prompt Further, for CCOC1CC(COC(=O)NCc2ccc3c(c2)C(=O)N(C2CCC(=O)NC2=O)C3)C1 (centres unmarked) ?
### Response 10 to 50%
